B1: TPR t1 (parent)
chain: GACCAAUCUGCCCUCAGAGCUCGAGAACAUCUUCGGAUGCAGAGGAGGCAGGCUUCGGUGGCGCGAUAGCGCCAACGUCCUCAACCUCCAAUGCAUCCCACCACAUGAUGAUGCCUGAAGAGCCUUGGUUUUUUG

# Variants of: B1
# experimental.details: polymerase ribozyme fitness, log enrichment relative to wild type (log ratio); higher = more active; in vitro selection for triplet polymerase activity
Hi, to clarify the labels: satisfied covers polymerase ribozyme fitness (log ratio) from -2 upward, not satisfied covers anything below -2.

Record excerpt, results attached:
>  <variant.description>
U32C G69C G128C

>  <assigned.label>
not satisfied

$$$$
>  <variant.description>
A27C G61U

>  <assigned.label>
not satisfied

$$$$
>  <variant.description>
C3U C13G A90U A121C C124A

>  <assigned.label>
satisfied

$$$$
>  <variant.description>
C20U G61U

>  <assigned.label>
satisfied

$$$$
>  <variant.description>
C34G U78G

>  <assigned.label>
not satisfied

$$$$

Q: Could you tell me if the measured polymerase ribozyme fitness (log ratio) of C15U G63A C73U A90C G110U reaches -2 or more?
Ans: not satisfied

Q: Does A6U C11U A46C G51C G57U A121C have a reported polymerase ribozyme fitness (log ratio) of at least -2?
Ans: not satisfied

Q: Could you tell me if the measured polymerase ribozyme fitness (log ratio) of G42A A108G A121G reaches -2 or more?
Ans: not satisfied

Q: Is polymerase ribozyme fitness (log ratio) at least -2? Consider A27U C72G U78A
Ans: not satisfied

Q: Entry C20G G44C C72G A95G : is its polymerase ribozyme fitness (log ratio) no less than -2?
Ans: not satisfied
